molecular target: p110δ/p85α (Homo sapiens, UniProt O00329); assay: Transcreener KINASE Assay, kinase inhibition of p110δ/p85α; assay type: biochemical; conditions: 1 uM test compound
Sequence (O00329 whole entry): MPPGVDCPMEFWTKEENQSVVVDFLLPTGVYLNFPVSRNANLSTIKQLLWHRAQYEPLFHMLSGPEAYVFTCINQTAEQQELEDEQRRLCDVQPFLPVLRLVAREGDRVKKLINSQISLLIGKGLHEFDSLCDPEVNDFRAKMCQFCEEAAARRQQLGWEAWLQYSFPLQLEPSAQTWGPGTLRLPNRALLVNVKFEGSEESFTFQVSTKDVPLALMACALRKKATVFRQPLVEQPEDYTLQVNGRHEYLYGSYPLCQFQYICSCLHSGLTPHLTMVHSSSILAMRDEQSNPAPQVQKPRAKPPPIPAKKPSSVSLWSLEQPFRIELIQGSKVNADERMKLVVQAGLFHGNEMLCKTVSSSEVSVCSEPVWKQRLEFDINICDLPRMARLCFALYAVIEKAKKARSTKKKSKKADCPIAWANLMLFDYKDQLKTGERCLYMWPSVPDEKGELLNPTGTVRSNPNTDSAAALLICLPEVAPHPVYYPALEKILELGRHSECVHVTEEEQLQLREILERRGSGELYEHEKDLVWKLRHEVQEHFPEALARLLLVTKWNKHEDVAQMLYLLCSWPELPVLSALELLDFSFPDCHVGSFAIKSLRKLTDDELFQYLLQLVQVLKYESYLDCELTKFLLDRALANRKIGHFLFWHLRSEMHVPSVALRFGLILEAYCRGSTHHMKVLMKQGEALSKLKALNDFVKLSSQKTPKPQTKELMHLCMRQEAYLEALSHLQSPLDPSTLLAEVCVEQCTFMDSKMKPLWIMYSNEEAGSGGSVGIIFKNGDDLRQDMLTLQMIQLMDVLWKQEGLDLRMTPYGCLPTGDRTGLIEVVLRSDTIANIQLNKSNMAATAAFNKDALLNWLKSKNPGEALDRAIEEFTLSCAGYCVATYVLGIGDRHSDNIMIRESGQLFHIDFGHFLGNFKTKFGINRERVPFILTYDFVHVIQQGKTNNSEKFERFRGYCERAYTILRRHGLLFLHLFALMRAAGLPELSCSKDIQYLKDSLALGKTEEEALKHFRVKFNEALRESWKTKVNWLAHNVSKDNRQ
Sequence (P27986 whole entry partner): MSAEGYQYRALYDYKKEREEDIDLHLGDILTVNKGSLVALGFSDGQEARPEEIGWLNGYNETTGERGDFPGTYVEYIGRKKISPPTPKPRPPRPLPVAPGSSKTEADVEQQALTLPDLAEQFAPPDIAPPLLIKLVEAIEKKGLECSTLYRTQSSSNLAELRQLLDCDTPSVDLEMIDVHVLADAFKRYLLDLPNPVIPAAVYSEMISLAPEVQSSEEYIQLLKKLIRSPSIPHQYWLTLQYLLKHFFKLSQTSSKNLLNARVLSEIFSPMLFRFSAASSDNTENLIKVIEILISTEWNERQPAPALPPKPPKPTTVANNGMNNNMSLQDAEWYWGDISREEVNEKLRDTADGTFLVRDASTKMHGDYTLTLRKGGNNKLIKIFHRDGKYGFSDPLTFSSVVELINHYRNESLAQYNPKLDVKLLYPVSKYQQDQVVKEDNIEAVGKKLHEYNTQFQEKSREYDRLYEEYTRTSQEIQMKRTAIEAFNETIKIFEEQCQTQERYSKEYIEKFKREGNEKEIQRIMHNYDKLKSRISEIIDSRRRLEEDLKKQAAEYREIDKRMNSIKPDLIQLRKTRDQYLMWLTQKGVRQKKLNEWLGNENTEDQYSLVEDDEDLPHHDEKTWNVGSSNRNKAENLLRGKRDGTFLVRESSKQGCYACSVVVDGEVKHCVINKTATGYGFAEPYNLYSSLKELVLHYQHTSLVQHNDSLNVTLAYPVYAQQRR
Recorded Endpoint: PI3Kδ IH % @ 1 uM

Enquiry: # PI3Kδ IH % @ 1 uM lookup, item CC(Nc1ncnc(N)c1C#N)c1cn2ccc(Cl)c2c(=O)n1-c1cc(F)cc(F)c1 (stereo not drawn)
Return: >100%

Enquiry: # PI3Kδ IH % @ 1 uM lookup, item `Nc1ncc(-c2c[nH]c3ncnc(N4CC[C@H]4c4nn5ccc(Cl)c5c(=O)n4-c4ccccc4)c23)cn1`
Return: >100%

Enquiry: # PI3Kδ IH % @ 1 uM lookup, item `C[C@H]1CN(c2nc(N)ncc2C#N)[C@@H]1c1nn2ccc(Cl)c2c(=O)n1-c1ccccn1`
Return: >100%

###

target: p110δ/p85α (Homo sapiens); test: Transcreener KINASE Assay, kinase inhibition of p110δ/p85α; format: biochemical; conditions: 1 uM test compound
Assign PI3Kδ IH % @ 1 uM to each entry below.

Enquiry: # PI3Kδ IH % @ 1 uM lookup, item N#Cc1c[nH]c2ncnc(N3CCC[C@H]3c3nn4ccc(Cl)c4c(=O)n3CCN3CCOCC3)c12 [Compound 255]
Return: >100%

Enquiry: # PI3Kδ IH % @ 1 uM lookup, item COc1ccc(-c2c[nH]c3ncnc(N4CC[C@H]4c4nn5ccc(Cl)c5c(=O)n4-c4ccccc4)c23)cn1 [Compound 102]
Return: >100%

Enquiry: # PI3Kδ IH % @ 1 uM lookup, item Nc1ncnc(N2CC[C@H]2c2nn3ccc(Cl)c3c(=O)n2-c2ccccc2)c1Cl [Compound 30]
Return: >100%

###

biological target: p110δ/p85α (Homo sapiens, UniProt O00329); assay: Transcreener KINASE Assay, kinase inhibition of p110δ/p85α; conditions: read-out: PI3Kδ IC50
Recorded Endpoint: pIC50
Answer as the number alone; pIC50 is minus log10 of concentration in mol/L.

Enquiry: # pIC50 lookup, item `Cc1nc(N)nc(N2C[C@H](C)[C@H]2c2nn3ccc(F)c3c(=O)n2-c2cccc(F)c2)c1C#N`
Return: 9.00

Enquiry: # pIC50 lookup, item CC(Nc1ncnc2[nH]cnc12)c1cc2ccc(Cl)n2c(=O)n1-c1cccc(F)c1 (stereo not drawn)
Return: 8.30

Enquiry: # pIC50 lookup, item CC(=O)c1cnc(N)nc1N1CCCC1c1cn2ccc(Cl)c2c(=O)n1-c1ccccc1 (stereo not drawn)
Return: 8.30

Enquiry: # pIC50 lookup, item `CC(=O)c1cnc(N)nc1N1C[C@H](C)[C@H]1c1nn2ccc(Cl)c2c(=O)n1-c1ccccc1`
Return: 8.40

Enquiry: # pIC50 lookup, item `N#Cc1c[nH]c2ncnc(N3CCC[C@H]3c3nn4ccc(Cl)c4c(=O)n3CC(F)(F)F)c12`
Return: 8.15

Enquiry: # pIC50 lookup, item `CC(=O)c1c[nH]c2ncnc(N[C@@H](C)c3cn4ccc(F)c4c(=O)n3-c3ccccc3)c12`
Return: 7.14

Enquiry: # pIC50 lookup, item `CC(=O)c1c[nH]c2ncnc(N3CCC[C@H]3c3nn4ccc(Cl)c4c(=O)n3-c3cccc(F)c3)c12`
Return: 8.70

Enquiry: # pIC50 lookup, item `CS(=O)(=O)c1c[nH]c2ncnc(N3CCC[C@H]3c3nn4ccc(Cl)c4c(=O)n3-c3ccccc3)c12`
Return: 8.30

Enquiry: # pIC50 lookup, item `Cc1nc(N)nc(N2CC[C@H]2c2nn3ccc(C#N)c3c(=O)n2-c2ccccc2)c1C#N`
Return: 8.22

Values compiled from patent US20150307520A1.
